Target: T1, Fus1, P11710
T1 sequence (P11710 432-512, looked up): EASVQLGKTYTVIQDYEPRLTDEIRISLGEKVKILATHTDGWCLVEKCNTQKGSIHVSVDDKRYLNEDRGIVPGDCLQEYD
Assay: SPOT array
Conditions: median of control spots 1200
SPOT intensity by entry:

>  <BINDER>
PKMLPIPSKPTLFDL

>  <SPOT intensity>
0

$$$$
>  <BINDER>
KRRAPPPVPKKPSSR

>  <SPOT intensity>
10

$$$$
>  <BINDER>
YVRRRPRVRLEPLLS

>  <SPOT intensity>
19

$$$$
>  <BINDER>
TSIEIPKRSPLRFTS

>  <SPOT intensity>
0

$$$$
